Protocol: PAMPA permeability
Type: in vitro ADME
Measurement context: PAMPA
Attribute measured: PAMPA Permeability (×10^6 cm/s)

Ask | Given Nc1ccc(-c2ccc3ncc4ccc(=O)n(-c5ccc6c(c5)C(=O)NC6=O)c4c3c2)cn1 , state its recorded PAMPA Permeability (×10^6 cm/s).
Reply | 3.9 ×10^6 cm/s

Ask | Given Nc1ccc(-c2ccc3ncc4ccc(=O)n(-c5ccc6c(c5)NC(=O)C6)c4c3c2)cn1 , state its recorded PAMPA Permeability (×10^6 cm/s).
Reply | <1 ×10^6 cm/s

Ask | Given Cc1cc(S(C)(=O)=O)ccc1-n1c(=O)ccc2cnc3ccc(-c4ccc(N)nc4)cc3c21 , state its recorded PAMPA Permeability (×10^6 cm/s).
Reply | 148.4 ×10^6 cm/s

----------
Exercise: state measured Sol @ pH 7.4 (ug/mL) for each of the molecules provided.
Protocol: Solubility at pH 7.4
Format: physicochemical

Ask | Given N#Cc1cc(-n2c(=O)ccc3cnc4ccc(-c5ccc(Cl)cc5)cc4c32)ccc1N1CCOCC1 [Compound 6] , state its recorded Sol @ pH 7.4 (ug/mL).
Reply | 0.02 ug/mL

Ask | Given CN(C)Cc1ccc(-c2ccc3ncc4ccc(=O)n(-c5ccc6c(c5)CN(C5CC5)C6=O)c4c3c2)cc1 [Compound 354] , state its recorded Sol @ pH 7.4 (ug/mL).
Reply | >74.0 ug/mL

Ask | Given CN(C)S(=O)(=O)c1ccc(-n2c(=O)ccc3cnc4ccc(-c5ccc(Cl)cc5)cc4c32)cc1 [Compound 42] , state its recorded Sol @ pH 7.4 (ug/mL).
Reply | <1.0 ug/mL

Ask | Given CS(=O)(=O)c1ccc(-n2c(=O)ccc3cnc4ccc(-c5ccc(Cl)c(C#N)c5)cc4c32)cc1 [Compound 32] , state its recorded Sol @ pH 7.4 (ug/mL).
Reply | <1.0 ug/mL

Ask | Given CN1C(=O)CCc2cc(-n3c(=O)ccc4cnc5ccc(-c6ccc(N)nc6)cc5c43)ccc21 [Compound 392] , state its recorded Sol @ pH 7.4 (ug/mL).
Reply | 33.81 ug/mL

Ask | Given CS(=O)(=O)c1ccc(-n2c(=O)ccc3cnc4ccc(-c5ccc(Cl)cc5)cc4c32)cc1CN1CCOCC1 [Compound 66] , state its recorded Sol @ pH 7.4 (ug/mL).
Reply | <1 ug/mL

Ask | Given CN(C)Cc1ccc(-c2ccc3ncc4ccc(=O)n(-c5ccc6c(c5)CC(=O)N6)c4c3c2)cc1 [Compound 350] , state its recorded Sol @ pH 7.4 (ug/mL).
Reply | >68.0 ug/mL

Ask | Given Nc1ccc(-c2ccc3ncc4ccc(=O)n(-c5cccc(S(N)(=O)=O)c5)c4c3c2)cn1 [Compound 77] , state its recorded Sol @ pH 7.4 (ug/mL).
Reply | 33.6 ug/mL

----------
Protocol: Solubility at pH 7.4
Assay type: physicochemical
Exercise: state measured Sol @ pH 7.4 for each of the compounds provided.

Ask | Given O=C(NC1CCC1)c1ccc(-n2c(=O)ccc3cnc4ccc(-c5ccc(Cl)cc5)cc4c32)cc1 [Compound 154] , state its recorded Sol @ pH 7.4.
Reply | <1.0 ug/mL

Ask | Given Cc1cc(C(=O)NCCCN2CCS(=O)(=O)CC2)ccc1-n1c(=O)ccc2cnc3ccc(-c4ccc(Cl)cc4)cc3c21 [Compound 289] , state its recorded Sol @ pH 7.4.
Reply | <1 ug/mL

Ask | Given O=C(NCC1CCOCC1)c1ccc(-n2c(=O)ccc3cnc4ccc(-c5ccc(Cl)cc5)cc4c32)cc1 [Compound 288] , state its recorded Sol @ pH 7.4.
Reply | <1 ug/mL

Ask | Given O=C(NC1CCCCC1)c1ccc(-n2c(=O)ccc3cnc4ccc(-c5ccc(Cl)cc5)cc4c32)cc1 [Compound 155] , state its recorded Sol @ pH 7.4.
Reply | <1.0 ug/mL

Ask | Given CC(C)c1ccc(-c2ccc3ncc4ccc(=O)n(-c5ccc(C(=O)N6CCOCC6)cc5)c4c3c2)cc1 [Compound 201] , state its recorded Sol @ pH 7.4.
Reply | <1 ug/mL

Ask | Given NC(=O)c1ccc(-n2c(=O)ccc3cnc4ccc(-c5ccc(Cl)cc5)cc4c32)cc1 [Compound 239] , state its recorded Sol @ pH 7.4.
Reply | <1 ug/mL

Ask | Given O=C(c1ccc(-n2c(=O)ccc3cnc4ccc(-c5ccc(Cl)cc5)cc4c32)cc1)N1CCOCC1 [Compound 85] , state its recorded Sol @ pH 7.4.
Reply | <1.0 ug/mL

Ask | Given O=C(NC1CC1)c1ccc(-n2c(=O)ccc3cnc4ccc(-c5ccc(CN6CCCC6)cc5)cc4c32)cc1 [Compound 233] , state its recorded Sol @ pH 7.4.
Reply | >76 ug/mL

Ask | Given O=C(c1ccc(-n2c(=O)ccc3c(F)nc4ccc(-c5ccc(Cl)cc5)cc4c32)cc1)N1CCOCC1 [Compound 235] , state its recorded Sol @ pH 7.4.
Reply | <1 ug/mL

Ask | Given COc1cc(C(=O)NCCN2CCNCC2)ccc1-n1c(=O)ccc2cnc3ccc(-c4ccc(Cl)cc4)cc3c21 [Compound 257] , state its recorded Sol @ pH 7.4.
Reply | >84 ug/mL

Ask | Given O=Cc1ccc(-c2ccc3ncc4ccc(=O)n(-c5ccc(C(=O)N6CCOCC6)cc5)c4c3c2)cc1 [Compound 169] , state its recorded Sol @ pH 7.4.
Reply | 2.8 ug/mL

Ask | Given Cc1cc(C(=O)NCCN2CCN(C)CC2)ccc1-n1c(=O)ccc2cnc3ccc(-c4ccc(Cl)cc4)cc3c21 [Compound 277] , state its recorded Sol @ pH 7.4.
Reply | 19.9 ug/mL

Ask | Given CN(C)Cc1ccc(-c2ccc3ncc4ccc(=O)n(-c5ccc(C(=O)N(CCO)CCO)cc5)c4c3c2)cc1 [Compound 160] , state its recorded Sol @ pH 7.4.
Reply | >79.0 ug/mL

Ask | Given O=C(c1ccc(-n2c(=O)ccc3cnc4ccc(-c5ccc(CO)cc5)cc4c32)cc1)N1CCOCC1 [Compound 120] , state its recorded Sol @ pH 7.4.
Reply | <1.0 ug/mL

Ask | Given Cn1c(=O)n(-c2cccc(C#N)c2)c2c3cc(-c4cccc(C#N)c4)ccc3ncc21 [Compound 401] , state its recorded Sol @ pH 7.4.
Reply | <1.0 ug/mL

Ask | Given COc1cc(C(=O)NC2CC2)ccc1-n1c(=O)ccc2cnc3ccc(-c4ccc(F)c(O)c4)cc3c21 [Compound 272] , state its recorded Sol @ pH 7.4.
Reply | 11.8 ug/mL

Ask | Given COc1cc(C(=O)NCCN2CCC2)ccc1-n1c(=O)ccc2cnc3ccc(-c4ccc(Cl)cc4)cc3c21 [Compound 253] , state its recorded Sol @ pH 7.4.
Reply | >80 ug/mL

Ask | Given N#Cc1cc(-c2ccc3ncc4ccc(=O)n(-c5ccc(C(=O)N6CCOCC6)cc5)c4c3c2)ccc1Cl [Compound 153] , state its recorded Sol @ pH 7.4.
Reply | <1.0 ug/mL

Ask | Given CNC(=O)c1ccc(-n2c(=O)ccc3cnc4ccc(-c5ccc(N)nc5)cc4c32)cc1 [Compound 335] , state its recorded Sol @ pH 7.4.
Reply | 2.8 ug/mL

Ask | Given COc1cc(C(=O)NCCN(C)c2ccccc2)ccc1-n1c(=O)ccc2cnc3ccc(-c4ccc(Cl)cc4)cc3c21 [Compound 251] , state its recorded Sol @ pH 7.4.
Reply | <1 ug/mL

----------
Protocol: Microsomal stability (rat)
Format: in vitro ADME
Measurement context: rat microsomes
Attribute measured: Microsomal Stability (rat) T1/2

Ask | Given Nc1ccc(-c2ccc3ncc4ccc(=O)n(-c5ccc(C(=O)N6CCOCC6)cc5)c4c3c2)cc1 , state its recorded Microsomal Stability (rat) T1/2.
Reply | >30.0 min

Ask | Given Nc1ccc(-c2ccc3ncc4ccc(=O)n(-c5ccc6c(c5)CN(C5CC5)C6=O)c4c3c2)cn1 , state its recorded Microsomal Stability (rat) T1/2.
Reply | >30.0 min

Ask | Given O=C(c1ccc(-n2c(=O)ccc3cnc4ccc(-c5ccc6c(c5)CNC6)cc4c32)cc1)N1CCOCC1 , state its recorded Microsomal Stability (rat) T1/2.
Reply | >30 min

Ask | Given CS(=O)(=O)c1ccc(-n2c(=O)ccc3cnc4ccc(-c5ccc(Cl)c(N)c5)cc4c32)cc1 , state its recorded Microsomal Stability (rat) T1/2.
Reply | >30.0 min

Ask | Given Cn1c(=O)n(-c2cccc(C#N)c2)c2c3cc(-c4ccc(Cl)c(O)c4)ccc3ncc21 , state its recorded Microsomal Stability (rat) T1/2.
Reply | >30.0 min

----------
Target under test: mTOR (Homo sapiens, UniProt P42345)
Protocol: mTOR activity (no method described)
Format: biochemical
Attribute measured: log10 mTOR (log10 of the value in nM)
Use the decimal logarithm of mTOR (nM).

Ask | Given C[C@@H]1CN(C(=O)c2ccc(-n3c(=O)ccc4cnc5ccc(-c6ccc(Cl)cc6)cc5c43)cc2)C[C@H](C)O1 [Compound 101] , state its recorded log10 mTOR.
Reply | 3.25

Ask | Given Cc1ccc(C#N)cc1-n1c(=O)n(C)c2cnc3ccc(-c4ccc[nH]4)cc3c21 [Compound 419] , state its recorded log10 mTOR.
Reply | 4.48

Ask | Given Cc1cc(C(=O)NCCCN(CCO)CCO)ccc1-n1c(=O)ccc2cnc3ccc(-c4ccc(Cl)cc4)cc3c21 [Compound 281] , state its recorded log10 mTOR.
Reply | 3.34

Ask | Given COc1cccc(-c2ccc3ncc4ccc(=O)n(-c5ccc(C(=O)N6CCOCC6)cc5)c4c3c2)c1 [Compound 123] , state its recorded log10 mTOR.
Reply | 2.93

Ask | Given O=C(NCCCN1CCS(=O)(=O)CC1)c1ccc(-n2c(=O)ccc3cnc4ccc(-c5ccc(Cl)cc5)cc4c32)cc1 [Compound 261] , state its recorded log10 mTOR.
Reply | 3.27

Ask | Given CN1CCN(CCNC(=O)c2ccc(-n3c(=O)ccc4cnc5ccc(-c6ccc(Cl)cc6)cc5c43)cc2)CC1 [Compound 264] , state its recorded log10 mTOR.
Reply | 3.12

Ask | Given CN(C)CCN1CCN(C(=O)c2ccc(-n3c(=O)ccc4cnc5ccc(-c6ccc(C7(N)CC7)cc6)cc5c43)cc2)CC1 [Compound 270] , state its recorded log10 mTOR.
Reply | 3.51

Ask | Given Nc1cc(Cl)ccc1-c1ccc2ncc3ccc(=O)n(-c4ccc(C(=O)N5CCOCC5)cc4)c3c2c1 [Compound 136] , state its recorded log10 mTOR.
Reply | 3.56

Ask | Given CC(C)(C)c1ccc(-c2ccc3ncc4ccc(=O)n(-c5ccc(C(=O)N6CCOCC6)cc5)c4c3c2)cc1 [Compound 196] , state its recorded log10 mTOR.
Reply | 5.00

Ask | Given Cc1cc(-c2ccc3ncc4ccc(=O)n(-c5ccc(C(=O)N6CCOCC6)cc5)c4c3c2)ccc1Cl [Compound 144] , state its recorded log10 mTOR.
Reply | 3.32

Ask | Given CCN(CC)CCCNC(=O)c1ccc(-n2c(=O)ccc3cnc4ccc(-c5ccc(Cl)cc5)cc4c32)cc1 [Compound 266] , state its recorded log10 mTOR.
Reply | 3.48

Reference source for all entries: patent US11753408B2
